target: Hexose transporter 1 (Plasmodium falciparum); test: ST_JUDE_LEISH: Cytotoxicity at 2uM final concentration against transgenic Leishmania Mexicana promastigotes LmPfHT that are glucose transport deficient and complemented with the Plasmodium falciparum hexose transporter. Activity is measured by DNA content using SYBR green in vitro; assay type: functional
# inhibition listing for each entry below

>  <molecule>
CC(C)(C)C/C=C\c1ccc(C(=O)NCC2CC2)cc1

>  <inhibition>
9.04%

$$$$
>  <molecule>
O=C(NCc1ccccc1)c1ncn(CCCN2CCC(N3CCCC3)CC2)c1-c1ccc(Cl)c(Cl)c1

>  <inhibition>
-1.01%

$$$$
>  <molecule>
CCCOc1ccc(OCCCON2C(=N)N=C(N)NC2(C)C)cc1

>  <inhibition>
0.05%

$$$$
>  <molecule>
CN1CCN(CCNc2c3ccccc3nc3c2ccc2ccccc23)CC1

>  <inhibition>
88%

$$$$
>  <molecule>
COC(=O)C(NC(=O)c1ccc(-c2ccc(-c3nc4ccccc4[nH]3)s2)cc1)c1ccc(O)cc1 (centres undefined)

>  <inhibition>
2.37%

$$$$
>  <molecule>
COc1ccc2nccc([C@@H](O)CN3CCC(NC(=O)C(c4ccccc4C)N4CCC(Cc5ccccc5)CC4)CC3)c2c1 (some centres undefined)

>  <inhibition>
1.16%

$$$$
>  <molecule>
CS(=O)(=O)c1ccc(OCCCN(Cc2ccccc2C(F)(F)F)c2ccc(C#N)c(C(F)(F)F)c2)cc1

>  <inhibition>
3.33%

$$$$
>  <molecule>
Fc1ccc2[nH]c(-c3ccc(-c4ccc(CN5CCN(c6cnccn6)CC5)cc4)s3)nc2c1

>  <inhibition>
1.2%

$$$$
>  <molecule>
Cc1[nH]c2ccccc2c1C(=O)CSc1nn(-c2ccccc2)c(=S)s1

>  <inhibition>
7.39%

$$$$
>  <molecule>
O=c1cc(NCCC(CNCc2cc3ccccc3o2)NCc2cc(Br)cc(Br)c2)[nH]c2ccccc12 (centres undefined)

>  <inhibition>
0.33%

$$$$
>  <molecule>
CCCCCCCN1CCC(NC(=O)Nc2ccnc3ccc(OC)cc23)C(C(=O)OCC)C1 (centres undefined)

>  <inhibition>
0%

$$$$
>  <molecule>
Cc1cc(N[C@@H](Cc2ccccc2)C(=O)NCc2cccc(F)c2)nc(NCCCOC(C)C)n1

>  <inhibition>
1.37%

$$$$
>  <molecule>
CCOc1cc(Br)c(C(C)NC(=O)c2ccccc2)cc1OCC (centres undefined)

>  <inhibition>
0.92%

$$$$
>  <molecule>
CNC(=O)Cc1ccc(C(=O)Nc2cccc(-c3cccc(-c4nc5cccc(C)c5[nH]4)c3)c2)cc1

>  <inhibition>
-0.87%

$$$$
>  <molecule>
Cc1[nH]c(CNCCCNc2cc(=O)c3ccccc3[nH]2)c(Br)c1Br

>  <inhibition>
1.85%

$$$$
>  <molecule>
COc1cccc2cc(C(=O)N[C@@H](CC(C)C)C(=O)N[C@H](/C=N/N3C(=O)CN(Cc4ccccc4)C3=O)CCc3ccccc3)oc12

>  <inhibition>
8.34%

$$$$
>  <molecule>
CN(C)c1ccc(-c2csc(C(=O)NC3CCCCN(Cc4ccc(C(C)(C)C)cc4)C3)c2)cc1 (centres undefined)

>  <inhibition>
-0.61%

$$$$
>  <molecule>
COc1ccc(Nc2nccc(N3CCC(NC(=O)C(C)c4ccc(Cl)cc4)CC3)n2)cc1 (centres undefined)

>  <inhibition>
0.07%

$$$$
>  <molecule>
Cc1cc(C2NC(=O)c3ccccc3N2)c(C)n1-c1ccc2c(c1)OCO2 (centres undefined)

>  <inhibition>
3.59%

$$$$
